procedure_details: soluble on expression in E. coli; label from the status in PepcDB or PDB records

seq	soluble on expression in E. coli
MRIAIEKIIGLLKNQSSKESNVKIHRLAYITNSKFDGNNYIDRWCKIRNSHIGEYSYIGFGSDFNNVEVGRYCSISSDVKIGLGKHPTHFFSSSPIFYSNNNPFNIKQKFIDFNDQPSRTTIKNDVWIGANVIIMDGLTINTGAVIAAGSVVTKNVGAYEVVGGVPAKVIKKRFDNKTIEKLLESKWWEKTPDKLKGFSVEYLNKKDT	not soluble
MGSDKIHHHHHHMKDKDINNDFNHIFPKDIRDDFLFSLDSYRLFLEGLSINPSLFYQKWSDVHLQSIIDKYWKPTQKSDWKWSLALPIFSLLENYINTFNKPIIIGFSGLPGSGKSTLGLWIDSVARELSLDIKVISLDDFYLPGHEMDVAMTGNPWNVPRGFPGSHSLDLLNQSLDVFLKTGVLNSPTFDKSLRDGKGDRSGWCDSQPRVLILEGWFVGCEAVSDLSKIDSMAADEFNLSLSQSEKDYRILIQESLFEYSHIWKKFEKIWHLKSSQFNNTILWKSQQEGEMIKLKGSGLKGNNLSNFIRMIQTSIPQQSLSFINSDTTVGINQDRRINFLKTSKYYF	not soluble
